Exercise: for every item that follows, state its recorded MIC (μg/ml) Broth microdilution.
system: Escherichia Coli MC 4100; test: MIC broth microdilution, E. coli MC 4100 (wild type); assay type: cell-based; settings: E. coli MC 4100
# value in µg/mL; strip the unit string

Memo: CSCCC(N)C(=O)N(C)C(C)C(NC(=O)C(CCSC)NC(=O)NC(Cc1c[nH]c2ccccc12)C(=O)O)C(=O)NCC1CC(O)C(n2ccc(=O)[nH]c2=O)O1 (centres unmarked) , reported MIC (μg/ml) Broth microdilution: 512

Memo: CC(C(NC(=O)C(Cc1ccc(F)cc1)NC(=O)NC(Cc1ccc(O)cc1)C(=O)O)C(=O)NCC1CC(O)C(n2ccc(=O)[nH]c2=O)O1)N(C)C(=O)CN (centres unmarked) , reported MIC (μg/ml) Broth microdilution: 8

Memo: C[C@H](N)C(=O)N(C)[C@@H](C)[C@H](NC(=O)[C@H](Cc1ccc(C(F)(F)F)cc1)NC(=O)N[C@@H](Cc1ccc(O)cc1)C(=O)O)C(=O)NC[C@H]1C[C@@H](O)[C@H](n2ccc(=O)[nH]c2=O)O1 , reported MIC (μg/ml) Broth microdilution: 512

Memo: CC(C)C[C@H](NC(=O)N[C@@H](Cc1c[nH]c2ccccc12)C(=O)O)C(=O)N[C@H](C(=O)NC[C@H]1C[C@@H](O)[C@H](n2ccc(=O)[nH]c2=O)O1)[C@H](C)N(C)C(=O)[C@H](C)N , reported MIC (μg/ml) Broth microdilution: 128

Cited source for all entries: patent US6482921B1
